Reference for the values: ChEMBL document CHEMBL4342405

test: Oral bioavailability in mouse; format: ADME, organism-based; settings: in vivo

# Compound Structure String, Measurement Unit, bioavailability
records = [
    ("CN(C)CC[C@H](CSc1ccccc1)Nc1ccc(S(=O)(=O)NC(=O)c2ccc(N3CCN(Cc4ccccc4-c4ccc(Cl)cc4)CC3)cc2)cc1[N+](=O)[O-]", "%", 20),
]

----------
assay: Oral bioavailability in rat; format: ADME, organism-based; conditions: in vivo

# Compound Structure String, bioavailability (%)
records = [
    ("CN(C)CC[C@H](CSc1ccccc1)Nc1ccc(S(=O)(=O)NC(=O)c2ccc(N3CCN(Cc4ccccc4-c4ccc(Cl)cc4)CC3)cc2)cc1[N+](=O)[O-]", 20),
]
